biological target: glutathione S-transferase (GST)-fused full-length human Syk protein (Homo sapiens); construct: (GST)-fused full-length human Syk protein; GST (glutathione S-transferase); purchased Carna Biosciences; assay: Syk enzyme assay; type: biochemical; settings: Syk enzyme assay, Test Example 1; read-out: IC50 of Syk-inhibitory activity
Catalogue of IC50 values

Sample answers from the record:
Compound: COC(=O)c1cncc(Nc2nc(N[C@@H]3CCCC[C@@H]3N)c(F)cc2C(N)=O)c1 [Example 004-016]
Assayed target: glutathione S-transferase (GST)-fused full-length human Syk protein (Homo sapiens)
Measurement: < 0.01 µM
//
Compound: CC[C@@H](Nc1nc(Nc2ccc3ncccc3c2)c(C(N)=O)cc1F)C(N)=O [Example 012-031]
Assayed target: glutathione S-transferase (GST)-fused full-length human Syk protein (Homo sapiens)
Measurement: 0.01 to 0.05 µM

Briefly, IC50 measured for CC[C@H](N)[C@@H](CC)Nc1nc(Nc2ccnc(OC)c2)c(C(N)=O)cc1F [Example 006-381] : 0.01 to 0.05 µM

Entry C[C@H](N)[C@@H](CC1CC1)Nc1nc(Nc2cccc3c2cnn3C)c(C(N)=O)cc1F [Example 006-356] — recorded IC50 = < 0.01 µM

For this compound ( Cc1cc(Nc2nc(N[C@H](CCCO)[C@H](C)N)c(F)cc2C(N)=O)cnc1C [Example 044-000] ), measured IC50 is 0.01 to 0.05 µM

Entry Cn1nc(N2CCOCC2)c2cc(Nc3nc(N[C@@H]4CCCC[C@@H]4N)c(F)cc3C(N)=O)ccc21 [Example 006-560] ; IC50 = 0.01 to 0.05 µM

Consider CCOc1cc(Nc2nc(N[C@@H](CN)CC(C)C)c(F)cc2C(N)=O)ccn1 [Example 006-145] . Its measured IC50 is < 0.01 µM

Kindly note the recorded IC50 for CCCC[C@@H](Nc1nc(Nc2cnc3cc(OC)ccc3c2)c(C(N)=O)cc1F)[C@H](C)N [Example 006-205] , which is < 0.01 µM
